experiment: in vitro; conditions: mouse, liver microsomes
endpoint: half-life (min)

molecule	endpoint	data.value
COC(c1ccc(F)cc1C(F)(F)F)c1cnc2n1CCN(c1cn[nH]c(=O)c1Cl)C2 (stereo unspecified)	half-life	38.7

---

assay: Cmax in ICR mouse at 10 mg/kg, po measured upto 24 hrs by LC-MS/MS analysis; assay type: ADME, organism-based; conditions: in vivo
endpoint: Cmax (ng/mL)

molecule	data.value
COC(c1ccc(F)cc1Cl)c1cnc2n1CCN(c1cn[nH]c(=O)c1Cl)C2 (stereo in doubt; 12)	1150

---

assay: Tmax in ICR mouse at 10 mg/kg, po measured upto 24 hrs by LC-MS/MS analysis; type: ADME, organism-based; conditions: in vivo

compound	Tmax (h)
COC(c1ccc(F)cc1Cl)c1cnc2n1CCN(c1cn[nH]c(=O)c1Cl)C2 (stereo in doubt; 12)	1
